// provenance: patent US20260151516A1

# ASSAY_COMMENT: Biodistribution studies incl. blocking experiments
# Type: in vivo
# CONDITION_LABEL: healthy BALB/c mice, 60 min p.i.
QUANTITY_KIND: Biodistribution Spleen (% ID/g)
Please respond with the number in % ID/g and leave the unit unwritten.

MOLECULE | READOUT_VALUE
O=C(O)CN1CCN(CC(=O)O)CCN([C@H](CCC(=O)NCCCC(=O)NC(COCc2cn(CCOCCOCCO[C@@H]3O[C@H](CO)[C@H](O)[C@H](O)[C@H]3O)nn2)(COCc2cn(CCOCCOCCO[C@@H]3O[C@H](CO)[C@H](O)[C@H](O)[C@H]3O)nn2)COCc2cn(CCOCCOCCO[C@@H]3O[C@H](CO)[C@H](O)[C@H](O)[C@H]3O)nn2)C(=O)O)CC1 [[^68Ga]Ga-NODAGA-TriGalactan, metal not drawn] | 0.16
CC(=O)N[C@H]1[C@H](OCCOCCOCCn2cc(CNC(=O)CCP(=O)([O-])CN3CCN(CP(=O)([O-])CCC(=O)NCc4cn(CCOCCOCCO[C@@H]5O[C@H](CO)[C@H](O)[C@H](O)[C@H]5NC(C)=O)nn4)CCN(CP(=O)([O-])CCC(=O)NCc4cn(CCOCCOCCO[C@@H]5O[C@H](CO)[C@H](O)[C@H](O)[C@H]5NC(C)=O)nn4)CC3)nn2)O[C@H](CO)[C@H](O)[C@@H]1O.[68Ga+3] [[^68Ga]Ga-TRAP-GalNAc] | 0.17
O=C(CCP(=O)([O-])CN1CCN(CP(=O)([O-])CCC(=O)NCc2cn(CCOCCOCCO[C@@H]3O[C@H](CO)[C@@H](O)[C@H](O)[C@H]3O)nn2)CCN(CP(=O)([O-])CCC(=O)NCc2cn(CCOCCOCCO[C@@H]3O[C@H](CO)[C@@H](O)[C@H](O)[C@H]3O)nn2)CC1)NCc1cn(CCOCCOCCO[C@@H]2O[C@H](CO)[C@@H](O)[C@H](O)[C@H]2O)nn1.[68Ga+3] [[^68Ga]Ga-TRAP-Gluco, reference compound] | 0.11

Please give the measured Biodistribution Spleen for this molecule: O=C(CCP(=O)([O-])CN1CCN(CP(=O)([O-])CCC(=O)NCc2cn([C@@H]3O[C@H](CO)[C@H](O)[C@H](O)[C@H]3O)nn2)CCN(CP(=O)([O-])CCC(=O)NCc2cn([C@@H]3O[C@H](CO)[C@H](O)[C@H](O)[C@H]3O)nn2)CC1)NCc1cn([C@@H]2O[C@H](CO)[C@H](O)[C@H](O)[C@H]2O)nn1.[68Ga+3] [[^68Ga]Ga-Galacto-TRAP]
0.52

Same question for O=C(CCP(=O)([O-])CN1CCN(CP(=O)([O-])CCC(=O)NCc2cn(CCOCCOCCO[C@@H]3O[C@H](CO)[C@H](O)[C@H](O)[C@H]3O)nn2)CCN(CP(=O)([O-])CCC(=O)NCc2cn(CCOCCOCCO[C@@H]3O[C@H](CO)[C@H](O)[C@H](O)[C@H]3O)nn2)CC1)NCc1cn(CCOCCOCCO[C@@H]2O[C@H](CO)[C@H](O)[C@H](O)[C@H]2O)nn1.[68Ga+3] [[^68Ga]Ga-TRAP-Galactan] please.
0.17
